These measurements were taken from patent EP4768479A1.

- Study Target: CYP2C9 (Homo sapiens)
- Construct: Mixed human liver microsomes; from tissue; host or cells: mixed (pooled) human liver microsomes
- Sequence (P11712 whole entry): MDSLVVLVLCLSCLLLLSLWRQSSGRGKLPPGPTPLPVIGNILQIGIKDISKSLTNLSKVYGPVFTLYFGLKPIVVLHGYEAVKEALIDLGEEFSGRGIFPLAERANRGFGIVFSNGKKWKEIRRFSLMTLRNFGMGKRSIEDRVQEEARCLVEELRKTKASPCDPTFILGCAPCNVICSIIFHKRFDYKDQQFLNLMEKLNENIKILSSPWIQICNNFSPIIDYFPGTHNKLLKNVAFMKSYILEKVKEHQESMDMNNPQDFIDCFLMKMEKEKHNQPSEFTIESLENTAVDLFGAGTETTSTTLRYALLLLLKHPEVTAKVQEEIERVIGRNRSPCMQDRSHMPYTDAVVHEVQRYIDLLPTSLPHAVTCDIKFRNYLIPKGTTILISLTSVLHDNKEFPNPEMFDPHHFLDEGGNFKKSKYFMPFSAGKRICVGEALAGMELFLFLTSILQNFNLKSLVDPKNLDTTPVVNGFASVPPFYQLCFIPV
- Assay Notes: CYP inhibition assay in mixed human liver microsomes
- Format: in vitro ADME
- Study Conditions: read-out: Inhibition Rate % CYP2C9
What inhibition at 10 µM was measured for each of the following?
Please state the figure in %; there is no need to write the unit.

inhibition at 10 µM measured on CCCCOC(=O)NS(=O)(=O)c1sc(CC(C)C)cc1-c1ccc(Cn2ccnc2)cc1 [Control Compound I, reference compound] = 100

In plain terms, Cc1c(CC(C)C)sc(S(=O)(=O)NC(=O)OCCO)c1-c1ccc(Cn2ccnc2C(F)(F)F)cc1 has a documented inhibition at 10 µM of 12.2

The recorded inhibition at 10 µM for Cc1c(CC(C)C)sc(S(=O)(=O)NC(=O)OCC(C)(C)O)c1-c1ccc(Cn2ccnc2C(F)(F)F)cc1 is 5.3

Lab note: measured inhibition at 10 µM of COC(=O)NS(=O)(=O)c1sc(CC(C)C)c(C)c1-c1ccc(Cn2ccnc2C(C)(C)O)cc1 was 0
